Tested on: rat trachea contraction induced by KCl depolarization
Assay: KCl-induced rat trachea contraction
Design: species or system rat (male SHR, Okamoto-Aoki)
Conditions: Rattus norvegicus, 40 min, read-out: Contraction (% max.)
// returns rule not met unless activity at 1 µM is strictly below 60%, in which case rule met

CCCCOP(=O)(CC(CP(=O)(OCCCC)OCCCC)c1ccccn1)OCCCC; rule not met
CCCCOP(=O)(CC(CCCc1cccnc1)CP(=O)(OCCCC)OCCCC)OCCCC; rule met
CC(C)OP(=O)(CC(CCCc1ccccc1)CP(=O)(OC(C)C)OC(C)C)OC(C)C; rule not met

// switching to the query molecule
Consider the molecule `CCCCOP(=O)(CC(Cc1cccc2ccccc12)CP(=O)(OCCCC)OCCCC)OCCCC` . Is its activity at 1 µM strictly less than 60%? rule not met

====

System: rat trachea contraction induced by KCl depolarization
Assay: KCl-induced rat trachea contraction
Set-up: species or system rat (male SHR, Okamoto-Aoki)
Conditions: Rattus norvegicus, 40 min, read-out: Contraction (% max.)
Protocol: Spontaneously hypertensive male rats (SHR) Okamoto-Aoki Strain, weighing 300-400 g were used in this study. They were killed by bleeding after Pentobarbital anesthesia (Nembutal, Abbott Co, 40 mg/kg). […] A contractile or relaxant response was isometrically measured with a force-displacement transducer (Ugo-Basile) and recorded on a polygraph (Beckman). After equilibration, KCl was added to the bath at 65 mM final concentration. […] Results were expressed as % of maximal contraction. […]
I'd appreciate it if you could supply activity at 1 µM values for the items below.
One number for each entry, in %.

These recorded examples may help you get a feel for the data.
CCCCOP(=O)(CC(Cc1cc(OC)c(OC)c(OC)c1)CP(=O)(OCCCC)OCCCC)OCCCC; 80
CCCCOP(=O)(CC(CCc1ccccc1)CP(=O)(OCCCC)OCCCC)OCCCC; 35

Below are some molecules; for each one, tell me its activity at 1 µM.
1. CCCCCOP(=O)(CC(CCCc1ccccc1)CP(=O)(OCC)OCCCCC)OCC (stereo not drawn)
2. CCCCOP(=O)(CC(Cc1ccccc1)CP(=O)(OCCCC)OCCCC)OCCCC
3. CCCCOP(=O)(CC(CCCC1CCCCC1)CP(=O)(OCCCC)OCCCC)OCCCC

1. 60
2. 46.2
3. 100

Below are some molecules; for each one, tell me its activity at 1 µM.
1. CC(C)OP(=O)(CC(Cc1ccccc1)CP(=O)(OC(C)C)OC(C)C)OC(C)C
2. CCOP(=O)(CC(Cc1ccc(-c2ccccc2)cc1)CP(=O)(OCC)OCC)OCC
3. COP(=O)(CC(Cc1ccccc1)CP(=O)(OC)OC)OC
4. CCCCOP(=O)(CC(CP(=O)(OCCCC)OCCCC)C(c1ccccc1)c1ccccc1)OCCCC
5. CCOP(=O)(CC(Cc1cccc2ccccc12)CP(=O)(OCC)OCC)OCC
6. CCOP(=O)(CC(CP(=O)(OCC)OCC)C(c1ccccc1)c1ccccc1)OCC

1: 73; 2: 84; 3: 91; 4: 96.2; 5: 53.8; 6: 96

Below are some molecules; for each one, tell me its activity at 1 µM.
1. CCCCCC(CP(=O)(OCCCC)OCCCC)CP(=O)(OCCCC)OCCCC
2. CCCCOP(=O)(CC(Cc1ccncc1)CP(=O)(OCCCC)OCCCC)OCCCC
3. CCCCOP(=O)(CC(Cc1ccc(-c2ccccc2)cc1)CP(=O)(OCCCC)OCCCC)OCCCC
4. CCCCOP(=O)(CC(CCOc1ccccc1)CP(=O)(OCCCC)OCCCC)OCCCC
5. CCCCOP(=O)(CC(CCCc1ccccc1)CP(=O)(OCCCC)OCCCC)OCCCC

88.5
71.9
98.5
60.3
70

Below are some molecules; for each one, tell me its activity at 1 µM.
1. CCOP(=O)(CC(Cc1ccccc1)CP(=O)(OCC)OCC)OCC
2. CCOP(=O)(CC(Cc1ccc(Cl)cc1)CP(=O)(OCC)OCC)OCC

[53, 90]

The origin of these recorded values is patent US4696920A.
